meta.source: ChEMBL document CHEMBL3585336

- target: Amine oxidase [flavin-containing] A (Bos taurus, UniProt P21398)
- Sequence (P21398 whole entry): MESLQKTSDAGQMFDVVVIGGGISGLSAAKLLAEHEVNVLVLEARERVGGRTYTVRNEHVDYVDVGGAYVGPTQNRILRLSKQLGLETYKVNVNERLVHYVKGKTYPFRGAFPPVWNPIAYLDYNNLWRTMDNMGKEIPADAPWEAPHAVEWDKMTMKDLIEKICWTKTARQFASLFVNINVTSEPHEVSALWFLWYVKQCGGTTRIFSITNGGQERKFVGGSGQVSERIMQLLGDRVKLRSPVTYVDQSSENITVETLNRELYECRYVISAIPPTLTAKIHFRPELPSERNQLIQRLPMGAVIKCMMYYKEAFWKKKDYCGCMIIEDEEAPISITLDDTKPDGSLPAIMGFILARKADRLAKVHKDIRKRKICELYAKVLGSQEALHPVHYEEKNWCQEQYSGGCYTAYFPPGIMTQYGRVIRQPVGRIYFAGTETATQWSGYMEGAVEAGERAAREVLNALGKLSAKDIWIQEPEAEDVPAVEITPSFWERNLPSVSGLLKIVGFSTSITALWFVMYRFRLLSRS
We label by threshold. Values of IC50 strictly beneath 50 nM are criterion met. Values of 50 nM and up are criterion not met.

- NNC(=O)C(Cc1ccccc1)N1C(=O)c2ccccc2NC1c1ccco1 (stereo unspecified): criterion met
- NNC(=O)CN1C(=O)c2ccccc2NC1c1ccc(Cl)cc1 (stereo unspecified): criterion met
- COC(=O)[C@H](Cc1ccccc1)NC(=O)c1ccccc1N: criterion met
- NNC(=O)C(Cc1ccccc1)N1C(=O)c2ccccc2NC1c1ccc(Cl)cc1 (stereo unspecified): criterion met
- COc1ccc(C2Nc3ccccc3C(=O)N2CC(=O)NN)cc1 (stereo unspecified): criterion not met
- NNC(=O)CCN1C(=O)c2ccccc2NC1c1ccc2c(c1)OCO2 (stereo unspecified): criterion met
- NNC(=O)CCCN1C(=O)c2ccccc2NC1c1ccco1 (stereo unspecified): criterion met
- NNC(=O)CCCN1C(=O)c2ccccc2NC1c1ccccc1 (stereo unspecified): criterion met
- COC(=O)CN1C(=O)c2ccccc2NC1c1ccc(Cl)cc1 (stereo unspecified): criterion met
- COC(=O)CCN1C(=O)c2ccccc2NC1c1ccc(Cl)cc1 (stereo unspecified): criterion not met
- COC(=O)CCCN1C(=O)c2ccccc2NC1c1ccccc1 (stereo unspecified): criterion not met
- COC(=O)CNC(=O)c1ccccc1N: criterion not met
- COC(=O)C(C)N1C(=O)c2ccccc2NC1c1ccco1 (stereo unspecified): criterion met
- COC(=O)[C@H](C)NC(=O)c1ccccc1N: criterion not met
- COC(=O)CCNC(=O)c1ccccc1N: criterion not met
- COC(=O)CN1C(=O)c2ccccc2NC1c1ccc(OC)cc1 (stereo unspecified): criterion met
- COC(=O)CCCN1C(=O)c2ccccc2NC1c1ccc2c(c1)OCO2 (stereo unspecified): criterion not met
- COC(=O)C(Cc1ccccc1)N1C(=O)c2ccccc2NC1c1ccco1 (stereo unspecified): criterion not met
- COC(=O)CCCCCNC(=O)c1ccccc1/N=C/c1ccccc1: criterion not met
- COC(=O)CCCCCN1C(=O)c2ccccc2NC1c1ccc2c(c1)OCO2 (stereo unspecified): criterion not met
- COC(=O)CCCNC(=O)c1ccccc1N: criterion not met
- CC(C(=O)NN)N1C(=O)c2ccccc2NC1c1ccco1 (stereo unspecified): criterion met
- COC(=O)C(Cc1ccccc1)N1C(=O)c2ccccc2NC1c1ccc(Cl)cc1 (stereo unspecified): criterion met
- NNC(=O)CN1C(=O)c2ccccc2NC1c1ccco1 (stereo unspecified): criterion met
- COC(=O)CCCN1C(=O)c2ccccc2NC1c1ccco1 (stereo unspecified): criterion not met
- COC(=O)CCN1C(=O)c2ccccc2NC1c1ccc2c(c1)OCO2 (stereo unspecified): criterion not met
